- target-or-system: T1, IL-2 (UniProt P60568 21-153)
- T1 construct: also called interleukin 2
- T1 sequence (P60568 21-153 limits assumed): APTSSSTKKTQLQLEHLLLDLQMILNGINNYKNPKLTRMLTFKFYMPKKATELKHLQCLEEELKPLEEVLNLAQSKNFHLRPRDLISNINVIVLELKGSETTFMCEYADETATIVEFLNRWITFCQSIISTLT
- measurement-protocol: SPR
Listed here are binders together with their documented Kd.
Reply numerically in nM, unit not repeated.

input: Which measured Kd value corresponds to VHH36 (VHH, In the functional rows it stood as the masking moiety of construct C11; also called I31S, Q44G, R45L, M96A, W101Y) VHH: EVQLVESGGGLVQPGGSLRLSCAASGSIFSSNVMGWYRQAPGKGLELVAAISSGGSTNYADSVKGRFTISRDNAKNTVYLQMNSLKPEDTAVYYCAYASSYYEDETDYWGQGTQVTVSS ?
output: 3.99

Further cases:
input: Which measured Kd value corresponds to VHH7 (VHH, In the functional rows it stood as the masking moiety of construct C9; also called Q44G, R45L) VHH: EVQLVESGGGLVQPGGSLRLSCAASGSIFSINVMGWYRQAPGKGLELVAAISSGGSTNYADSVKGRFTISRDNAKNTVYLQMNSLKPEDTAVYYCMYASSWYEDETDYWGQGTQVTVSS ?
output: 0.187
